Tested on: MS2 coat protein
Test: apparent KD of MS2 coat protein, switch OFF state (with FMN for OFF switches, without FMN for ON switches); designed switch direction (-1 OFF switch, 1 ON switch): 1; higher = weaker reporter binding
Details: FMN input: 0 or 200 uM; Eterna round: R93 (includes R88 designs)
Use Yes when the recorded apparent KD of MS2 coat protein is no lower than 0.06 µM; use No when it is lower.

Reported apparent KD of MS2 coat protein reaches at least 0.06 µM for AAAAUAAAAUAAAAGGAUAUAAAAUAAAAAACAUGAGGAUCACCCAUGUGAAAACAUGAAAAAAAAAAGAAGGAAAAAUAAAAAA [SS2: 76 No MS2] ?
No

Threshold query (apparent KD of MS2 coat protein >= 0.06 µM) on GCAGGGCCACACUAGGAUAUGGGUGUCUAGACAUGAGGAUCACCCAUGUUAUGGCAAAACAAAGCUCAGAAGGAGUCGUGGCCCA [Tizasozaer]
No

Is the recorded value of apparent KD of MS2 coat protein equal to or greater than 0.06 µM for this sequence? AAAACUACAGAUCAGGAUAUGUUUAGGUAAACAUGAGGAUCACCCAUGUGCACCUGAUAAACAACACAGAAGGGAUAACGUGGGA [Geerreleon]
No

Reported apparent KD of MS2 coat protein reaches at least 0.06 µM for AUAAAAUAAAAGGAGGAUAUCCUAAAUAAAACAUGAGGAUCACCCAUGUAAAAAAUAAUAAAAUGGGAGAAGGCCUAAAAUAAAU [SS2 M 25] ?
No

Please indicate if the recorded apparent KD of MS2 coat protein for AACAAUCUAUCUGAGGAUAUCAUGUCAAAGACAUGAGGAUCACCCAUGUCUAGGAAAACUAGAUAUGAGAAGGCAGAUAGAUUGA [SS2 :P - 597] meets or exceeds 0.06 µM.
Yes

Determine whether measured apparent KD of MS2 coat protein meets or exceeds 0.06 µM for AUUAUUAUUACGCAGGAUAUCGAGGUUUUUACAUGAGGAUCACCCAUGUUUUUUUUUUUAUAUUACGAGAAGGGCGAUAUUAUUA [salish99-SS2-01]
No

Identify whether the reported apparent KD of MS2 coat protein of the following sequence is 0.06 µM or greater: AAUAAAAAUAGUCAGGAUAUGAGAACUAAGACAUGAGGAUCACCCAUGUAAACAGAACAAGUAAAUCAGAAGGGACAGGGUGAAA [JR_SS002_Sub201]
No

Is apparent KD of MS2 coat protein at least 0.06 µM? Consider AGGAAACAUGAGGAUCACCCAUGUAAAAAAUAUGGAGGAUAUACUAGAAGAAACAAAAUAGUAGAAGGCCAAAAAA [75%, Ex sub1, 31]
No

Exam item: decide whether the reported apparent KD of MS2 coat protein for CGGAAGGAGAGAGAGGAUAUCCAAAGGAAAACAUGAGGAUCACCCAUGUAGAAGGUAGGAAAUUGGGAGAAGGCUCAAGAGAGAG [salish99-ss2-119(!)] is at least 0.06 µM.
No

For this sequence, is measured apparent KD of MS2 coat protein 0.06 µM or higher? AAAAGACAUGAGGAUCACCCAUGUCAAAACAUAGGAGGAUAUGUCUGGAAAAAAGACUGGACAGAAGGCCUUUGUC [SS1 - 59]
No

Does AACUAACAUGAGGAUCACCCAUGUUACAGCAGUUGAGGAUAUGUGGGUGAAAAUAGCAUGGCAGAAGGCGAGUGUA [SameState1 Malc#24] have a reported apparent KD of MS2 coat protein of at least 0.06 µM?
Yes

In plain terms: is recorded apparent KD of MS2 coat protein at least 0.06 µM for AGAAGACAUGAGGAUCACCCAUGUGGGAAUAUGGGAGGAUAUACAAAGACGAGAGUCAGAGUAGAAGGCCUAGGAG [salish99-SS1-093] ?
Yes
